Taken from patent US12624112.

Molecular target: T1, ST2 on the effector cells (KU812, KU812/NF-κB-1#, HUVEC, HMC-1) (human, UniProt Q01638 19-556)
T1 sequence (looked up): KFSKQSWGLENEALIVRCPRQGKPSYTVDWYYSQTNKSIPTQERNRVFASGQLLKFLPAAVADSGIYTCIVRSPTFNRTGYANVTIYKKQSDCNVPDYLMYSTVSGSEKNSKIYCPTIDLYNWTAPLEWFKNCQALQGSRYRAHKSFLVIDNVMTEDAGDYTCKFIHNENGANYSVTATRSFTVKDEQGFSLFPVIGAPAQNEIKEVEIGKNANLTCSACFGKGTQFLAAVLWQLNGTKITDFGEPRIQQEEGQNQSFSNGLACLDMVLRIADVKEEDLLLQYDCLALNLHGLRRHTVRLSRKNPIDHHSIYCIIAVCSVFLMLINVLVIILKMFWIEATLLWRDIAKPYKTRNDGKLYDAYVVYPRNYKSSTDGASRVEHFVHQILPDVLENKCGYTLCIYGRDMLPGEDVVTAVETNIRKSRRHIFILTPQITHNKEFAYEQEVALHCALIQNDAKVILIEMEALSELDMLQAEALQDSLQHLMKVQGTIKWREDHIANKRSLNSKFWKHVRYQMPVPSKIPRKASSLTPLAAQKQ
Assay: cell-based or functional assay
Below is a list of entries, each paired with its recorded Relative activity compared with CNTO7160, KU812-NF-κB reporter gene value.
ATTRIBUTE MEASURED: Relative activity compared with CNTO7160, KU812-NF-κB reporter gene

[[record]]
binder = "5888-153-H0L1 (antibody, human IgG4 S228P, kappa, V domains shown, Humanized antibody) VH: QVQLVQSGAEVKKPGASVKVSCKASGYTFTDYELHWVRQAPGQGLEWMGTIDPETGDTVYNQKFKARVTMTRDTSTSTVYMELSSLRSEDTAVYYCARAFYNDYDDGFAYWGQGTLVTVSS VL: EIVMTQSPATLSLSPGERATLSCSVSSSVSYMHWYQQKPGQAPRRLIYDTSKLASGIPARFSGSGSGTDYTLTISSLEPEDAAVYYCQQWNSSPLTFGGGTKVEIKR"
readout_value = "458%"

[[record]]
binder = "5888-153-H1L2 (antibody, human IgG4 S228P, kappa, V domains shown) VH: QVQLVQSGAEVKKPGASVKVSCKASGYTFTDYELHWVRQAPGQGLEWMGTIDPETGDTVYNQKFKARVTMTADKSTSTAYMELSSLRSEDTAVYYCTRAFYNDYDDGFAYWGQGTLVTVSS VL: EIVMTQSPATLSLSPGERATLSCSVSSSVSYMHWYQQKPGQAPRRLIYDTSKLASGIPARFSGSGSGTDYTLTISSLEPEDAAVYYCQQWNTSPLTFGGGTKVEIKR"
readout_value = "454%"

